meta.source: the supplement of paper PMC10126150

The entries below are paired with their reported switch fluorescence ratio.
test system: ATP; experiment: switch fluorescence ratio, 500 uM ATP over buffer (Cy3 cluster intensity, sum of 5 cycles each) (fold (ratio)); higher = stronger signal-on switching upon ATP binding; sequences stand for … in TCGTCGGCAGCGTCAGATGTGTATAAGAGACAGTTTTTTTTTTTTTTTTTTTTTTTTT…TC; details: aptamer strand: ATP DNA aptamer (quencher-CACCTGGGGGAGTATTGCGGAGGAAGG + anchor), 100 nM annealed; ATP concentration: 500 uM;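 note: ATP exposure 15 min at 22 °C before imaging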
Property Measured: switch fluorescence ratio

{"columns": ["Primary Sequence", "Property Measured", "Experimental Value"],
 "data": [
  ["GAGAGGTG", "switch fluorescence ratio", 1.08],
  ["GGGCGCCTGC", "switch fluorescence ratio", 0.994],
  ["GGGTCAACGT", "switch fluorescence ratio", 0.987],
  ["CACCGTGTGG", "switch fluorescence ratio", 1.01],
  ["GTTGGCAGGC", "switch fluorescence ratio", 1.03],
  ["CGGTAGTCAG", "switch fluorescence ratio", 0.998],
  ["ACTAGGTGTG", "switch fluorescence ratio", 1.04],
  ["GTGGTAAGGG", "switch fluorescence ratio", 0.972],
  ["TTCGGTGAAG", "switch fluorescence ratio", 1.01],
  ["TAAACGCGGG", "switch fluorescence ratio", 1.04],
  ["AAATGATAGC", "switch fluorescence ratio", 1.02],
  ["ACTTAACCGG", "switch fluorescence ratio", 1.05],
  ["CCTTAGGTAT", "switch fluorescence ratio", 1.01],
  ["CGGTTTTTAC", "switch fluorescence ratio", 1.08],
  ["TATATGGAAG", "switch fluorescence ratio", 0.984],
  ["TTAGATAGGA", "switch fluorescence ratio", 0.999],
  ["AAGTTAGACC", "switch fluorescence ratio", 1.03],
  ["CGGGGACTTG", "switch fluorescence ratio", 0.987],
  ["TGTGTCTTTT", "switch fluorescence ratio", 1.01],
  ["AGAAGGGCGG", "switch fluorescence ratio", 0.99],
  ["AGCGAGTGGC", "switch fluorescence ratio", 0.991]
]}

* * *

tested on: ATP; test: switch fluorescence ratio, 500 uM ATP over buffer (Cy3 cluster intensity, sum of 5 cycles each) (fold (ratio)); higher = stronger signal-on switching upon ATP binding; sequences stand for … in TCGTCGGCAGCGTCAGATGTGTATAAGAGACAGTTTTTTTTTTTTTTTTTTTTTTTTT…TC; details: aptamer strand: ATP DNA aptamer (quencher-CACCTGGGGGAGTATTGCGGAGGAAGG + anchor), 100 nM annealed; ATP concentration: 500 uM;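 note: ATP exposure 15 min at 22 °C before imaging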
Property Measured: switch fluorescence ratio

{"columns": ["Primary Sequence", "Property Measured", "Experimental Value"],
 "data": [
  ["ATTGAATTCG", "switch fluorescence ratio", 1],
  ["AGTTCTGTCG", "switch fluorescence ratio", 1.01],
  ["TGAGTTATG", "switch fluorescence ratio", 1],
  ["CAAGTGTGAG", "switch fluorescence ratio", 0.985],
  ["GACTAAAATG", "switch fluorescence ratio", 1.02],
  ["GGGGGTGGAC", "switch fluorescence ratio", 1.01],
  ["TTTATCCCGA", "switch fluorescence ratio", 1.03],
  ["CTTTAAGGTG", "switch fluorescence ratio", 1.39],
  ["CGTTCCAGGC", "switch fluorescence ratio", 1.08],
  ["ATTTTGATAT", "switch fluorescence ratio", 1.01],
  ["TGAGGGCGGG", "switch fluorescence ratio", 1.03]
]}

* * *

tested on: ATP; assay: switch fluorescence ratio, 500 uM ATP over buffer (Cy3 cluster intensity, sum of 5 cycles each) (fold (ratio)); higher = stronger signal-on switching upon ATP binding; sequences stand for … in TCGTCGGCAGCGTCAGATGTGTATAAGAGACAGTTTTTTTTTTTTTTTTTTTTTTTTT…TC; details: aptamer strand: ATP DNA aptamer (quencher-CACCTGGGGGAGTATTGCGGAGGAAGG + anchor), 100 nM annealed; ATP concentration: 500 uM;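 note: ATP exposure 15 min at 22 °C before imaging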
Property Measured: switch fluorescence ratio

{"columns": ["Primary Sequence", "Experimental Value"],
 "data": [
  ["GCAGCTTGCA", 0.993],
  ["GAGGGCCATT", 0.978],
  ["TGGAAAGCTG", 1.04],
  ["GTATCTTGGG", 1.04],
  ["CGGATTTTTT", 0.995],
  ["CAGTTCCATG", 0.986],
  ["AGGGTTAAGT", 1],
  ["AATGAGTGTG", 0.981],
  ["AAAACAAACT", 1.26],
  ["CGGTCCGGCG", 1.01]
]}

* * *

test system: ATP; experiment: switch fluorescence ratio, 500 uM ATP over buffer (Cy3 cluster intensity, sum of 5 cycles each) (fold (ratio)); higher = stronger signal-on switching upon ATP binding; sequences stand for … in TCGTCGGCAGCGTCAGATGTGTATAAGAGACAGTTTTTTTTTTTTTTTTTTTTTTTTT…TC; conditions: aptamer strand: ATP DNA aptamer (quencher-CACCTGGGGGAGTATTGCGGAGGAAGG + anchor), 100 nM annealed; ATP concentration: 500 uM;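 note: ATP exposure 15 min at 22 °C before imaging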
Rule: switch fluorescence ratio under 1 gives Condition not met, otherwise Condition met.

{"columns": ["Primary Sequence", "Label Value"],
 "data": [
  ["TTTGCGGGGT", "Condition met"],
  ["TTTTGGTCCT", "Condition met"],
  ["GAGCGTCGGA", "Condition met"],
  ["CGGCGTAAAA", "Condition met"],
  ["TATTGTACTC", "Condition met"],
  ["AACTGGGGC", "Condition not met"],
  ["TTCCAGTATT", "Condition met"],
  ["ATTCCCAGGG", "Condition met"],
  ["AAGGATGTAT", "Condition not met"],
  ["CTTGGTGTAT", "Condition met"],
  ["CTACAGGGGG", "Condition met"],
  ["GCTGCCAACC", "Condition met"],
  ["TGAAGCAGGG", "Condition met"],
  ["GGGGGAAGTA", "Condition met"],
  ["AATAATAGGC", "Condition not met"]
]}

* * *

system: ATP; assay: switch fluorescence ratio, 500 uM ATP over buffer (Cy3 cluster intensity, sum of 5 cycles each) (fold (ratio)); higher = stronger signal-on switching upon ATP binding; sequences stand for … in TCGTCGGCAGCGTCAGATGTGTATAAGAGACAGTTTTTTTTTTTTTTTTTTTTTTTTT…TC; details: aptamer strand: ATP DNA aptamer (quencher-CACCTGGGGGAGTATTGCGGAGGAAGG + anchor), 100 nM annealed; ATP concentration: 500 uM;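 note: ATP exposure 15 min at 22 °C before imaging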

{"columns": ["Primary Sequence", "Assay Target", "switch fluorescence ratio"],
 "data": [
  ["TATTGCTGCT", "ATP", 0.983],
  ["TTTAGTTTCG", "ATP", 1.02],
  ["ATTATTTTGG", "ATP", 1.01],
  ["TTTTGGAAAC", "ATP", 1.11],
  ["GGGGCAAGCG", "ATP", 1.04],
  ["TTCGGGGGAG", "ATP", 0.979],
  ["TGTTGAACGT", "ATP", 1],
  ["TCCTGGCTTT", "ATP", 1.26],
  ["AGCTGACTGC", "ATP", 1.01],
  ["GACCGTAATG", "ATP", 1.05],
  ["ATCGATGGGT", "ATP", 1.03],
  ["GGAATCGGTC", "ATP", 1],
  ["CAGCTAGCGG", "ATP", 0.97],
  ["AGGTTATACG", "ATP", 1.01],
  ["TTGGGGCGGA", "ATP", 0.992],
  ["CGGTGATTGA", "ATP", 1],
  ["TTTGTCGTAT", "ATP", 0.996],
  ["GTGCTACGTG", "ATP", 0.966],
  ["AGAAAATTTC", "ATP", 1.04],
  ["TTGGGCGGGG", "ATP", 1.03]
]}

* * *

system: ATP; test: switch fluorescence ratio, 500 uM ATP over buffer (Cy3 cluster intensity, sum of 5 cycles each) (fold (ratio)); higher = stronger signal-on switching upon ATP binding; sequences stand for … in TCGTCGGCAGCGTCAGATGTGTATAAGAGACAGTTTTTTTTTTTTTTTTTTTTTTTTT…TC; settings: aptamer strand: ATP DNA aptamer (quencher-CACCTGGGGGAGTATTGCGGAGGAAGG + anchor), 100 nM annealed; ATP concentration: 500 uM;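 note: ATP exposure 15 min at 22 °C before imaging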
The entries below are paired with their reported switch fluorescence ratio.

{"columns": ["Primary Sequence", "Assay Target", "switch fluorescence ratio"],
 "data": [
  ["GCAGGTACGC", "ATP", 1.05],
  ["CGTTTGGGTG", "ATP", 1.02],
  ["GCAAGATTTA", "ATP", 1.01],
  ["TATTGGCTTC", "ATP", 0.992],
  ["TTCACTAGTG", "ATP", 1.02],
  ["GTTATGTTTG", "ATP", 1.01],
  ["AGGCTGTTCT", "ATP", 0.991],
  ["TCCAGTGGCT", "ATP", 1],
  ["TAGTTGTTGT", "ATP", 0.981],
  ["TGTAGTTTGT", "ATP", 0.973],
  ["CCTGCATTTG", "ATP", 1.09],
  ["ATTTAACTTA", "ATP", 1.01],
  ["TTTTGGCGAC", "ATP", 0.976],
  ["TGTGTTATGT", "ATP", 1.03],
  ["CGTTACTGGT", "ATP", 0.973],
  ["TACGTAATCT", "ATP", 1.27],
  ["GATTACCAAG", "ATP", 1.03],
  ["ATGGTCCGGT", "ATP", 0.988],
  ["TTTGTTACGG", "ATP", 0.978],
  ["TTAGGGTGAA", "ATP", 1.02]
]}
